Test: Cytotoxicity against human Jurkat E6.1 cells assessed as cell growth inhibition at 200 mM incubated for 24 hrs by trypan blue exclusion method relative to control
Type: toxicity, cell-based
Conditions: read-out: Activity
Assign inhibition at 24 h, 200000 µM to each entry below.
Numbers only, in %.

INSERT INTO measurements (structure, quantitative_readout) VALUES
  ('O=C(O)[C@@H]1CCCN1', 46),
  ('C[C@H](N)C(=O)O', 72);

Note: attention shifts to another entry.
IN: For "O=C(O)[C@H]1CCCN1" , what is its reported inhibition at 24 h, 200000 µM?
OUT: 107

----------
Test: Cytotoxicity against human Jurkat E6.1 cells assessed as cell growth inhibition at 100 mM incubated for 24 hrs by trypan blue exclusion method relative to control
Outcome Measure: inhibition at 24 h, 100000 µM (%)
Numbers only, in %.

IN: For O=C(O)[C@@H]1CCCN1 [PROLINE] , what is its reported inhibition at 24 h, 100000 µM?
OUT: 34

Origin of measurements: ChEMBL document CHEMBL5329173
